molecular target: PI3Kdelta (Homo sapiens (Human), UniProt O00329); experiment: HTRF PI3K biochemical assay, delta isoform; conditions: 0.3 nM enzyme, 100 uM ATP, 5 uM PIP2, form screened: Neutral
Sequence (O00329 whole entry, canonical isoform): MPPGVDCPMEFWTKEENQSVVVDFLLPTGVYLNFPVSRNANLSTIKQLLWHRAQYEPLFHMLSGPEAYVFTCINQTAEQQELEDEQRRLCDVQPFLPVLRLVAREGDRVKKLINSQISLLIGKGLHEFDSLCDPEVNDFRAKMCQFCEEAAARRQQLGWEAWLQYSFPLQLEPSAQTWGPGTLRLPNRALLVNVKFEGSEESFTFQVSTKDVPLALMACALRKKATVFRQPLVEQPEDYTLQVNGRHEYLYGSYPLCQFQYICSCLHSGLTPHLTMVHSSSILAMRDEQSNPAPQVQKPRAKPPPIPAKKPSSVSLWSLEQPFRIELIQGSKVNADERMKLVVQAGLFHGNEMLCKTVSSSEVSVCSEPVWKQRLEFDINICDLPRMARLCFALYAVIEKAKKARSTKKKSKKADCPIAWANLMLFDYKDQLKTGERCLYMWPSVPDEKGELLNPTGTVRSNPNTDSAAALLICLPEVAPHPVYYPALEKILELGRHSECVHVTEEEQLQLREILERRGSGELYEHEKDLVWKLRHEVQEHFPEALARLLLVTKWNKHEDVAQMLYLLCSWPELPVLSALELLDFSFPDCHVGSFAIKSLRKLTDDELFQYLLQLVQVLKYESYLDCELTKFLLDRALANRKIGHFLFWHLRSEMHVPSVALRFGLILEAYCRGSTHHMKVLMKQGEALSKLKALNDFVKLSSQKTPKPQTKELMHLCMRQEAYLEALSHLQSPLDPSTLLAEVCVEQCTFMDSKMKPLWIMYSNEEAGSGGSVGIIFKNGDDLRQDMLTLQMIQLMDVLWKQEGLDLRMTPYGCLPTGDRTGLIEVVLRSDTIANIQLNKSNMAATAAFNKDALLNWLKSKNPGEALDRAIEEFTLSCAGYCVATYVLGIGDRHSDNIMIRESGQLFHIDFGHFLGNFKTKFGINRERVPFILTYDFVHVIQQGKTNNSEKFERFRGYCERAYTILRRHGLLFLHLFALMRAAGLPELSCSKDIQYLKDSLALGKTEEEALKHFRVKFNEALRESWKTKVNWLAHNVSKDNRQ
Sequence (P27986 whole entry partner, canonical isoform): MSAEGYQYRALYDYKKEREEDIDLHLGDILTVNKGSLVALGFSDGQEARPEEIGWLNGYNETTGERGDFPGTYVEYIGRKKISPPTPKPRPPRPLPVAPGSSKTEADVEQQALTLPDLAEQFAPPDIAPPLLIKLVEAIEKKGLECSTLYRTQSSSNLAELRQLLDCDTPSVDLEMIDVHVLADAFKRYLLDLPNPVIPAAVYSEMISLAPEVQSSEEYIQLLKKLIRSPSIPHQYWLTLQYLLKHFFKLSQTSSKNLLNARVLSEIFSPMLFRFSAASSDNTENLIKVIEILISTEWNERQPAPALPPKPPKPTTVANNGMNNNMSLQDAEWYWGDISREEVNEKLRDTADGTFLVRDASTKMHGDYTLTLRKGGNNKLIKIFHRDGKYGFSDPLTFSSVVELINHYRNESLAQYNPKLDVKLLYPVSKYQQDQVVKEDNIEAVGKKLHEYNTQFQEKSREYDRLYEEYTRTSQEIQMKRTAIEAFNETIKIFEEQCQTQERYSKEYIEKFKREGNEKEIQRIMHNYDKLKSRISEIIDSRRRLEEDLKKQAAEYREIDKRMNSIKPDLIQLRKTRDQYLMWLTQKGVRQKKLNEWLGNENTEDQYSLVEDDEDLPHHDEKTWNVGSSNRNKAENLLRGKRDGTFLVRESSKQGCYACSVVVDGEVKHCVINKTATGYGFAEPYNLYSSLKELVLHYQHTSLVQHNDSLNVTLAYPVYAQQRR
pIC50: −log10 of the molar value.
recordedMetric: pIC50

> print(dat)
                                   molecule  observedresult
1  CCC[C@H](Nc1ncnc2c1nc(-c1cnc(C)nc1)n2CC)C(=O)N1C[C@@H](C)O[C@@H](C)C1 [Compound 2-45]            7.59
2  CCC(Nc1ncnc2c1nc(-c1cnc(C)nc1)n2CC)C(=O)N1CC(O)(C2CC2)C1 (single isomer, unassigned) [Compound 4-1]            7.52
3  CC[C@H](Nc1ncnc2c1nc(-c1cnc(C)nc1)n2CC)C(=O)N1CCC(OCCOC)CC1 [Compound 2-10]            7.21
4  CC[C@H](Nc1ncnc2c1nc(-c1cnc(C)nc1)n2CC)C(=O)N1CCOCC1(C)C [Compound 2-34]            7.92
5  CCn1c(-c2cnc(C)nc2)nc2c(NC[C@@H](C)C(=O)N3C[C@@H](C)O[C@@H](C)C3)ncnc21 [Compound 2-55]            7.70
6  CCn1c(-c2cnc(C)nc2)nc2c(N[C@H](CC(=O)N3C[C@@H](C)O[C@@H](C)C3)c3ccccc3)ncnc21 [Compound 2-56]            6.21
7  CCn1c(-c2cnc(C)nc2)nc2c(NC[C@@H](C)C(=O)N3CCCC3)ncnc21 [Compound 2-60]            7.54
